test-system: interleukin-1 receptor-associated kinase 4 (IRAK4) (Homo sapiens)
Sequence (Q9NWZ3 whole entry): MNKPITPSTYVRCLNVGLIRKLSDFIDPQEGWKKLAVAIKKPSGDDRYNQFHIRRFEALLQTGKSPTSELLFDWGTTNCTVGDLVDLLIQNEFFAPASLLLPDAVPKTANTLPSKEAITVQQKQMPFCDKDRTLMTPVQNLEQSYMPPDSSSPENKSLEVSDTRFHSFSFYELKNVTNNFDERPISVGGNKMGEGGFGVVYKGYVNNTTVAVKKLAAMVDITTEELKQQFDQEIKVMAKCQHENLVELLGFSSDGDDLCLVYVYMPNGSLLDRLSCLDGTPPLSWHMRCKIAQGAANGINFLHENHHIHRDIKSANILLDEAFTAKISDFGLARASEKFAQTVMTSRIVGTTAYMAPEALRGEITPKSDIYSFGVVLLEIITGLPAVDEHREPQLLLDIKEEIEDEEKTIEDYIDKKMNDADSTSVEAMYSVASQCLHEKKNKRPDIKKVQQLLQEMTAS
property: Kd (nM)
Numbers only here, please. The scale is nM.

What value of Kd on interleukin-1 receptor-associated kinase 4 (IRAK4) (Homo sapiens) does `CN(C)C` have?
14
